Sequence of the target: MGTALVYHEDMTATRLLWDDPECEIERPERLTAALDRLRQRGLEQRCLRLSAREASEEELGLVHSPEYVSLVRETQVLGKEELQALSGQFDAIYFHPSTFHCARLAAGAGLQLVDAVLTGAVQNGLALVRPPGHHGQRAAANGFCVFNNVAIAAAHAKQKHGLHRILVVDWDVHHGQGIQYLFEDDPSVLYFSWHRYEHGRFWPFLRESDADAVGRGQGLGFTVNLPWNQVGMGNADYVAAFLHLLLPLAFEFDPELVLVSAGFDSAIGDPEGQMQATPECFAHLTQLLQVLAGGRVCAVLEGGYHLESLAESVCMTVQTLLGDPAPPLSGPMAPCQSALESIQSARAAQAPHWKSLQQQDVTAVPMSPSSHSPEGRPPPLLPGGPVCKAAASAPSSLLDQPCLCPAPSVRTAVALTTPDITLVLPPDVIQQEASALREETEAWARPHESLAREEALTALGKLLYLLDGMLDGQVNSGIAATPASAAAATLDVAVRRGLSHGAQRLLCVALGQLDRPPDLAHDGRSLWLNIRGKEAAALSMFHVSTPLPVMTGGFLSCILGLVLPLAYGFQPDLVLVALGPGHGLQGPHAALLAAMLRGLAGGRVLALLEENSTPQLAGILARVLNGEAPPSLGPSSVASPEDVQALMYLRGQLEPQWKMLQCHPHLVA
pIC50: −log10 of the molar value.
Measurement Name: pIC50

Compound	Result Number
O=C(NO)c1ccc(CN(C(=O)N2CCOCC2)c2cccc(C(F)(F)F)c2)cc1 [Compound 374]	4.79
